Assay: chemical genetic growth profiling, strain panel (AID 1159580);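 note: tested at 20 µM; growth read once vehicle control cultures reached saturation at 30 °C; 1 = growth at the plate median or of vehicle wells; lower values mean less growth of the strain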
Details: S. cerevisiae deletion strains, growth OD, locus YEL003W, strain gim4, active compounds read low
Among all 5,500 compounds or so, about 2,000 (36%) were called active. Not shown: some 18% with an inconclusive outcome. Some of the results follow.
# normalized growth annotations

Compound: CCCCCCCCCCCCCC(=O)OC1C(C)C2(O)C(C=C(CO)CC3(O)C(=O)C(C)=CC32)C2C(C)(C)C12OC(C)=O (configuration not stated)
normalized growth: 0.982
//
Compound: CC1(C)C(=O)[C@@H]2O[C@@H]2[C@@]2(C)C1C[C@@H](O)[C@]1(C)C2CC[C@@]2(C)[C@H](c3ccoc3)OC(=O)C3OC321 (some centres not stated)
normalized growth: 1.01
//
Compound: CN1CCC[C@@H]1CCO[C@](C)(c1ccccc1)c1ccc(Cl)cc1
normalized growth: 0.952
//
Compound: CC(=O)O[C@H]1C[C@@H](OC(C)=O)C(C)(C)C2C[C@@H](O)[C@]3(C)C(CC[C@@]4(C)[C@H](c5ccoc5)OC(=O)[C@H]5O[C@]543)[C@]21C (some centres not stated)
normalized growth: 0.977
//
Compound: Fc1ccc([C@@H]2CCNC[C@H]2COc2ccc3c(c2)OCO3)cc1
normalized growth: 1.01
//
Compound: Nc1nc(F)nc2c1ncn2[C@@H]1O[C@H](COP(=O)(O)O)[C@@H](O)[C@@H]1O
normalized growth: 0.995
//
Compound: CC(=O)O[C@@H]1CC2C(C)(C)[C@H](O)CC[C@]2(C)C2CC[C@@]3(C)[C@H](c4ccoc4)OC(=O)C4OC43[C@@]21C (some centres not stated)
normalized growth: 1.03
//
Compound: C=NC(C(=O)NC1C(=O)N2C1SC(C)(C)C2C(=O)O)c1ccccc1 (configuration not stated)
normalized growth: 1
//
Compound: CCCCC(=O)O[C@]1(C(=O)CO)CCC2C3CCC4=CC(=O)CC[C@]4(C)C3[C@@H](O)C[C@@]21C (some centres not stated)
normalized growth: 0.997
//
Compound: CC(=O)O[C@@H]1CC2C(C)(C)[C@H](O)C=C[C@]2(C)C2CC[C@@]3(C)[C@H](c4ccoc4)OC(=O)C4OC43[C@@]21C (some centres not stated)
normalized growth: 1.02
//
Compound: CC(=O)O[C@@H]1CC2C(C)(C)C(=O)C3OC3[C@]2(C)C2CC[C@@]3(C)[C@H](c4ccoc4)OC(=O)C4OC43[C@@]21C (some centres not stated)
normalized growth: 0.979
//
Compound: Cc1onc(-c2ccccc2)c1-c1ccc(S(N)(=O)=O)cc1
normalized growth: 1
//
Compound: CC(=O)O[C@H]1CC[C@@]2(C)C(C[C@@H](OC(C)=O)[C@]3(C)C2CC[C@@]2(C)[C@H](c4ccoc4)OC(=O)[C@H]4O[C@]423)C1(C)C (some centres not stated)
normalized growth: 0.991
//
Compound: CN(C/C=C/C#CC(C)(C)C)Cc1cccc2ccccc12
normalized growth: 0.311
//
Compound: NCCCNCCSP(=O)(O)O
normalized growth: 0.988
//
Compound: Clc1ccccc1CN1CCc2sccc2C1
normalized growth: 1.01
//
Compound: Oc1c(Cl)cc(Cl)c(Cl)c1Cc1c(O)c(Cl)cc(Cl)c1Cl
normalized growth: 0.0558

====

Experiment: chemical genetic growth profiling, strain panel (AID 1159580);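 note: tested at 20 µM; growth read once vehicle control cultures reached saturation at 30 °C; 1 = growth at the plate median or of vehicle wells; lower values mean less growth of the strain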
Conditions: S. cerevisiae deletion strains, growth OD, locus YDL040C, strain nat1, active compounds read low
Screen size: about 5,500 compounds; about 2,000 (36%) were called active. Inconclusive results (about 18%) are left out. Some of the results follow.
We label by threshold. Values of normalized growth strictly beneath 1 are met. Values of 1 and up are not met.

Compound: Clc1ccc(COC(Cn2ccnc2)c2ccc(Cl)cc2Cl)c(Cl)c1 (centres undefined)
Group: met
--
Compound: Clc1ccc(CO/N=C(/Cn2ccnc2)c2ccc(Cl)cc2Cl)c(Cl)c1
Group: met
--
Compound: COc1ccnc(CS(=O)c2nc3ccc(OC(F)F)cc3[nH]2)c1OC (centres undefined)
Group: not met

====

Assay: chemical genetic growth profiling, strain panel (AID 1159580);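 note: tested at 20 µM; growth read once vehicle control cultures reached saturation at 30 °C; 1 = growth at the plate median or of vehicle wells; lower values mean less growth of the strain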
Conditions: S. cerevisiae deletion strains, growth OD, locus YKL048C, strain ELM1, active compounds read low
Hit rate of the full screen: of about 5,500 compounds, about 2,000 (36%) were called active. Another 18% or so got no clear call; they are omitted. The list shows a part of the results.
Listed next: entries and their corresponding normalized growth.
Assay readout: normalized growth

Compound: CNC(=O)Sc1c(-c2ccc(Cl)cc2)nn(C(=O)NC)c1SC
Measured: 0.545 (active)
//
Compound: COc1ccc(-c2csc(-c3cccnc3)n2)cc1
Measured: 0.958 (inactive)
//
Compound: N#CC(C#N)=Cc1c(-c2ccccc2Cl)[nH]c2ccccc12
Measured: 0.926 (inactive)
//
Compound: Cc1ccc(NC(=S)C(C#N)C(=O)N2CCOCC2)c(C)c1 (stereo unspecified)
Measured: 1.01 (inactive)
//
Compound: Clc1cccc(Nc2ncc(-c3ccc4c(c3)OCCCO4)s2)c1
Measured: 0.965 (inactive)
//
Compound: CC(C)(C)C1=C(C#N)C(c2c(Cl)cccc2Cl)C(C#N)=C(N)O1 (stereo unspecified)
Measured: 0.922 (inactive)
//
Compound: Cn1nccc1-c1cc(Cl)cc(Cl)c1O
Measured: 0.908 (inactive)
//
Compound: Cc1ccc(-c2nc(NS(=O)(=O)c3cccc4nonc34)sc2C)cc1Cl
Measured: 0.981 (inactive)
//
Compound: Cc1c(S(=O)(=O)Nc2cccc([N+](=O)[O-])c2)sc2ccc(Cl)cc12
Measured: 0.967 (inactive)
//
Compound: O=S(=O)(NCc1ccc(C(F)(F)F)cc1)c1cc(Br)c(Br)s1
Measured: 0.791 (active)
//
Compound: Clc1ccc(CSc2nccn2-c2cc(Cl)ccc2Cl)cc1
Measured: 0.927 (inactive)
//
Compound: O=S(=O)(Nc1cc(Cl)c(Cl)cc1Cl)c1cc(C(F)(F)F)cc(C(F)(F)F)c1
Measured: 0.906 (inactive)
//
Compound: Cc1noc(C)c1S(=O)(=O)Nc1csc(C(F)(F)F)c1-c1ccccc1
Measured: 0.973 (inactive)
//
Compound: CC1C(c2ccccc2)N(C)C(c2ccccc2)CC1(O)c1ccc(F)cc1 (stereo unspecified)
Measured: 0.982 (inactive)
//
Compound: C/C(=N/NC(=S)NCC(C)(C)C)c1cc(F)cc(Cl)c1O
Measured: 0.946 (inactive)
//
Compound: CC1=CC(=O)N(c2ccc(F)c(Cl)c2)C1=O
Measured: 0.474 (active)
//
Compound: Brc1ccc(-c2csc(-c3cccnc3)n2)cc1
Measured: 0.835 (inactive)
//
Compound: Cc1cccc(N=NC(C(=O)C(F)(F)F)=C(O)c2cccs2)c1
Measured: 0.976 (inactive)
//
Compound: CCOC(=O)c1sc(S(C)=NC(=O)Nc2ccc(Cl)cc2)c2c1CCC=C2 (stereo unspecified)
Measured: 0.96 (inactive)
//
Compound: COc1ccc(-c2cn3cc(C)ccc3n2)cc1
Measured: 0.957 (inactive)
//
Compound: C[C@@H](Nc1ncnc2sc3c(c12)CCCC3)c1ccccc1
Measured: 0.907 (inactive)

====

Assay: chemical genetic growth profiling, strain panel (AID 1159580);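 note: tested at 20 µM; growth read once vehicle control cultures reached saturation at 30 °C; 1 = growth at the plate median or of vehicle wells; lower values mean less growth of the strain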
Conditions: S. cerevisiae deletion strains, growth OD, locus YLR258W, strain gsy2, active compounds read low
Hit rate of the full screen: of about 5,500 compounds, about 2,000 (36%) were called active. Roughly 18% stayed inconclusive and do not appear here. Some of the results follow.
Field: label. Allowed values: 1 (normalized growth < 1) or -1 (normalized growth >= 1).

Molecule: CC1[C@H](C)OC(=O)CC(O)CC(O)CC(O)CCC(O)C(O)C[C@]2(O)CC(O)C(C(=O)O)C(CC(OC3O[C@H](C)[C@@H](O)[C@H](N)[C@@H]3O)/C=C/C=C/C=C/C=C/CC/C=C/C=C/[C@H](C)[C@H]1O)O2 (stereo partly drawn)
Group: 1
--
Molecule: COc1cc(C)c2c(=O)cc(-c3ccccc3)oc2c1
Group: 1
--
Molecule: CC12CCCCC1(Br)[N+](=O)N2[O-] (stereo not drawn)
Group: 1
--
Molecule: C[C@@H]1CC[C@H]2C(C)(C)C3CC12CC[C@@]3(C)O (stereo partly drawn)
Group: 1
--
Molecule: O=NN(CCCl)C(=O)NCCCl
Group: 1
--
Molecule: CC(=O)C1CC[C@H]2C3CC[C@H]4C[C@H](O)CC[C@]4(C)C3CC[C@]12C (stereo partly drawn)
Group: 1
--
Molecule: COc1ccc(CCC(=O)c2c(O)cc(O[C@@H]3O[C@H](CO)C(O)[C@H](O)C3O[C@@H]3O[C@@H](C)[C@H](O)[C@@H](O)[C@H]3O)cc2O)cc1O (stereo partly drawn)
Group: -1
--
Molecule: CC(=O)C1CCC2C3CCC4C[C@H](O)CCC4(C)C3C[C@H](O)C12C (stereo partly drawn)
Group: 1
--
Molecule: CC1CCC(NC(=O)N(CCCl)N=O)CC1 (stereo not drawn)
Group: 1
--
Molecule: NC1(C(=O)O)CC1
Group: -1

Data origin: PubChem BioAssay AID1159580
